- PROTOCOL SUMMARY: gradient 5% acetonitrile 3 min, to 50% in 2 min, to 85% in 15 min, held 3 min, 100 µL/min
- CONDITION DESCRIPTION: column: Zorbax Extend-C18 2.1 x 50 mm; eluents: water / acetonitrile, 0.1% formic acid
Decide using RP-LC retention time: a value greater than or equal to 700 s is Condition met, a smaller one is Condition not met.

Illustrative cases are given below, each with its answer.
>  <COMPOUND>
COc1ccc(Cl)cc1S(=O)(=O)N1CCc2nc(-c3ccc(F)cc3)ncc2C1

>  <GROUP>
Condition met

$$$$
>  <COMPOUND>
CC1CCCN(Cc2nc(-c3ccc(N(C)Cc4ccccc4)nc3)no2)C1 (configuration not stated)

>  <GROUP>
Condition met

$$$$
>  <COMPOUND>
Cc1cc(N(C)C)nc(N2CCN(S(=O)(=O)c3ccc(-c4ccccc4)cc3)CC2)n1

>  <GROUP>
Condition met

$$$$

# check: RP-LC retention time of CC(=O)Nc1ccc(CC(=O)N2C[C@@H]3CCN(S(C)(=O)=O)C[C@]3(CF)C2)cc1 is greater than or equal to 700 s
Condition not met

# check: RP-LC retention time of CC(C)Oc1ccc(-c2noc(Cn3c(=O)n(CCc4ccccc4)c(=O)c4sccc43)n2)cc1 is greater than or equal to 700 s
Condition met

# check: RP-LC retention time of Cc1ccc(-c2nc3ccc(C)cn3c2Nc2ccc3c(c2)OCO3)cc1 is greater than or equal to 700 s
Condition met

# check: RP-LC retention time of COc1ccccc1NC(=O)N1CCC(c2nc3ccncc3n2C(C)C)C1 (configuration not stated) is greater than or equal to 700 s
Condition not met

# check: RP-LC retention time of Cc1ccc(-c2nc(Nc3cccc(Cl)c3)sc2C)cc1 is greater than or equal to 700 s
Condition met

# check: RP-LC retention time of COc1ccc(NC(=O)N(C)CC2CCOCC2)c(C)c1 is greater than or equal to 700 s
Condition not met

# check: RP-LC retention time of Cc1ccc(F)c2c(=O)c3c([nH]c12)CCN(CC(=O)Nc1cccc(F)c1)C3 is greater than or equal to 700 s
Condition not met

# check: RP-LC retention time of CCCn1cc(C2=CCN(C(=O)Nc3ccc(OC)cc3)CC2)c2cccnc21 is greater than or equal to 700 s
Condition met
